tested system: hNav1.7 (Homo sapiens (Human))
Sequence (Q15858 other isoform, or with tags, fused parts or gaps): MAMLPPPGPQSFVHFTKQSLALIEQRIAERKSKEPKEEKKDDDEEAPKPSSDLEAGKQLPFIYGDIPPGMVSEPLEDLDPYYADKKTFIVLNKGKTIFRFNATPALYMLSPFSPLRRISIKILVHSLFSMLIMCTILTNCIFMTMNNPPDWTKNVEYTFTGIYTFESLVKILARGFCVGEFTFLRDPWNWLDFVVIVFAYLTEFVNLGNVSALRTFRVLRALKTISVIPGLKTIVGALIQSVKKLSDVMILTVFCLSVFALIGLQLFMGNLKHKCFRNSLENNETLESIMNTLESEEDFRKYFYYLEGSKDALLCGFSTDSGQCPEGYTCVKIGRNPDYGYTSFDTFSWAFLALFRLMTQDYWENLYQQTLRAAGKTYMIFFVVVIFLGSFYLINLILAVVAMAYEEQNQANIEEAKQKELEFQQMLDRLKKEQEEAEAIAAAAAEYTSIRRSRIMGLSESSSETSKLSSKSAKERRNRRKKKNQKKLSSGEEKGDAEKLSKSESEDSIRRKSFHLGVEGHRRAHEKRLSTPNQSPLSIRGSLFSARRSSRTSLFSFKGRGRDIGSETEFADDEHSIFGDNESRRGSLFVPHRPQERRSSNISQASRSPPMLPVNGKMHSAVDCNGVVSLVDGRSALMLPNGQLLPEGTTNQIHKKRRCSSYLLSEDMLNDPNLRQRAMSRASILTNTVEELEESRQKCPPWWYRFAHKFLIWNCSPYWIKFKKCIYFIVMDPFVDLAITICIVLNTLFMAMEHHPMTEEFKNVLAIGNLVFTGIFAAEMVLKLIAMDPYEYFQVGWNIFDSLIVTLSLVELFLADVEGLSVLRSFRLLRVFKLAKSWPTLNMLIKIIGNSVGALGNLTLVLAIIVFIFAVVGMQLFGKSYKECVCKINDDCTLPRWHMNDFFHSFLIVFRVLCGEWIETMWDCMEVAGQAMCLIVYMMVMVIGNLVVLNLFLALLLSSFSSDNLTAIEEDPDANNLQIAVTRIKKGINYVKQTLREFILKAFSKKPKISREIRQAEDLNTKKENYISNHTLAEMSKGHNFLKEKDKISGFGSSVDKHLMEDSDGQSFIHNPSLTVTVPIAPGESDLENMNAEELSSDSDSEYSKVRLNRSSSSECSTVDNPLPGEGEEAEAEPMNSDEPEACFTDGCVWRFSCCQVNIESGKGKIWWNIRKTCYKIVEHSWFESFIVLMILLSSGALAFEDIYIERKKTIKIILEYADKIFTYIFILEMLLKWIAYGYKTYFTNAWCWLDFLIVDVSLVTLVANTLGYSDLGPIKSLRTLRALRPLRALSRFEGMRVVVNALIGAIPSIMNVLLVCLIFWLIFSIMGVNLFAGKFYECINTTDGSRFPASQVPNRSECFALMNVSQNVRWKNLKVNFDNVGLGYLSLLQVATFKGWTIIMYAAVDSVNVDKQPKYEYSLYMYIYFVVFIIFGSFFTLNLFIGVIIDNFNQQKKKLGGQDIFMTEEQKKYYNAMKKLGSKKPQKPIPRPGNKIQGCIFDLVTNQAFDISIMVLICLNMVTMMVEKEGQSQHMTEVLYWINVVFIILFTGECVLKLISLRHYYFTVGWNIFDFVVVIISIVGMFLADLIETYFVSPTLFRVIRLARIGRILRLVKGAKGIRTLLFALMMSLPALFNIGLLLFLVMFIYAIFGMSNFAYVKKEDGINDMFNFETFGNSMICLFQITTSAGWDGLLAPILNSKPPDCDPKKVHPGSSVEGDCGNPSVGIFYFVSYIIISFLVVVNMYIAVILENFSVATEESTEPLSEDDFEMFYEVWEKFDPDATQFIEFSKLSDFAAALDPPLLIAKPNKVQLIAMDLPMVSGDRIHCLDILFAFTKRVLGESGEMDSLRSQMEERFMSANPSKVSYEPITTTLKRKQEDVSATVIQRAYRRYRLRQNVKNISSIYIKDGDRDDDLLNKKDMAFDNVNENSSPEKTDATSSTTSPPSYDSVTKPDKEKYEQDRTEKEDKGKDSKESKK
Sequence (Q07699 19-218 partner): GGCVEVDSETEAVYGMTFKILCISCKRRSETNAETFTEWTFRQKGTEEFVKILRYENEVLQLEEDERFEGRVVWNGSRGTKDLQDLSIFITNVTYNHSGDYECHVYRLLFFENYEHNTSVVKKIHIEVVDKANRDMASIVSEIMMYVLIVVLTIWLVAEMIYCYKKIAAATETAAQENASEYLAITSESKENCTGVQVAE
test method notes: Tritiated sulfonamide competitive binding to membranes from cells expressing hNav1.7 and the β1 subunit
conditions: read-out: Ligand Binding Assay; 100 pM [3H]compound, membranes with hNav1.7 and β1 subunit, 18 h, room temperature
Where a name gives a salt, the structure may show the parent alone.
Listing: pIC50 of selected molecules
Note: pIC50 values are expressed as the negative base-10 logarithm of concentration in M.

molecule	pIC50
CS(=O)(=O)NC(=O)c1cc(C2CC2)c(OCC2CCN(Cc3ccc(C(F)(F)F)c(F)c3)CC2)cc1F	8.05

GET /value?item= CS(=O)(=O)NC(=O)c1cc(C2CC2)c(OCC2CCN(Cc3cc(Cl)c(F)cc3F)CC2)cc1F [Example 455, trifluoroacetic acid salt] &field=pIC50 returns 8.07

GET /value?item= CC(c1cccc(Cl)c1)N1CCC(COc2cc(F)c(C(=O)NS(C)(=O)=O)cc2C2CC2)CC1 (stereo not drawn) &field=pIC50 returns 7.82

GET /value?item= CS(=O)(=O)NC(=O)c1cc(C2CC2)c(OCC2CCN(Cc3ccc(F)c(C(F)(F)F)c3)CC2)cc1F &field=pIC50 returns 7.80

GET /value?item= O=C(NS(=O)(=O)C1CC1)c1cc(C2CC2)c(OCC2(F)CCN(Cc3cc(C(F)(F)F)cc(Cl)c3F)CC2)cc1F [Example 347, trifluoroacetic acid salt] &field=pIC50 returns 8.20

GET /value?item= C[C@@H](c1ccc(Cl)c(Cl)c1)N1CCC(C)(COc2cc(F)c(C(=O)NS(C)(=O)=O)cc2C2CC2)CC1 (single isomer, unassigned) &field=pIC50 returns 8.08

GET /value?item= O=C(NS(=O)(=O)C1CC1)c1cc(C2CC2)c(OCC2CCN(S(=O)(=O)c3cc(Cl)cc(Cl)c3)CC2)cc1F &field=pIC50 returns 8.16

GET /value?item= C[C@@H](c1ccc(F)cc1Cl)N1C[C@H]2C[C@@H]1[C@H](Oc1cc(F)c(C(=O)NS(C)(=O)=O)cc1C1CC1)C2 [Example 450, trifluoroacetic acid salt] &field=pIC50 returns 8.00

GET /value?item= CS(=O)(=O)NC(=O)c1cc(C2CC2)c(OCC2CN([C@H](c3ccccc3)c3ccccc3Cl)C2)cc1F &field=pIC50 returns 8.00

---

Listing: IC50 of selected molecules
tested system: UniProt:Q15858
test method notes: Patch voltage clamp electrophysiological assay (EP), NaV1.7
Type: cell-based
conditions: HEK-293 cells stably expressing human NaV1.7 with β1 subunit, whole-cell patch clamp, holding −60 mV
Counter-ions that a name gives are not always drawn.

As a guide, the following entries are already answered.
> print(dat)
                                   molecule  reading
1  O=C(NS(=O)(=O)C1CC1)c1cc(C2CC2)c(CN2CCO[C@H](Cc3cc(Cl)cc(Cl)c3)C2)cc1F   < 3 nM
2  O=C(NS(=O)(=O)C1CC1)c1cc(C2CC2)c(CN2CCC(Oc3ncc(C4CC4)cc3Cl)CC2)cc1F [Example 474, hydrochloride]   < 3 nM
3  CS(=O)(=O)NC(=O)c1cc(C2CC2)c(CN2CCO[C@H](Cc3cc(Cl)cc(Cl)c3)C2)cc1F   < 3 nM

Kindly consider the entry below.
GET /value?item= CS(=O)(=O)NC(=O)c1cc(C2CC2)c(O[C@@H]2CCCN(Cc3ccc(F)cc3Cl)C2)cc1F &field=IC50 returns < 1 nM

---

tested system: UniProtKB Q15858
test method notes: Tritiated sulfonamide competitive binding to membranes from cells expressing hNav1.7 and the β1 subunit;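 also: Filter-bound radioactivity counted by liquid scintillation, nonspecific binding defined with excess unlabelled ligand, IC50 fitted to percent inhibition of specific binding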
conditions: read-out: Ligand Binding Assay; 100 pM [3H]compound, membranes with hNav1.7 and β1 subunit, 18 h, room temperature
Where a name gives a salt, the structure may show the parent alone.
measured metric: IC50 (nM)
// units = nM; emit number, no label

> print(dat)
                                   compound     tested.system  measured.metric  output.unit  reading
1  CCS(=O)(=O)NC(=O)c1cc(C2CC2)c(OCC2CCN([C@@H](c3cc(Cl)cc(Cl)c3)C(C)(C)OC)CC2)cc1F (single isomer, unassigned)  UniProtKB Q15858             IC50           nM      1.6

GET /value?item= CC1(COc2cc(F)c(C(=O)NS(C)(=O)=O)cc2C2CC2)CCN(C(=O)c2cc(Cl)c(Cl)cc2F)CC1 &field=IC50 returns 40

GET /value?item= COC[C@H](c1cc(Cl)cc(Cl)c1)N1CCC[C@@H](Oc2cc(F)c(C(=O)NS(C)(=O)=O)cc2C2CC2)C1 [Example 448, trifluoroacetic acid salt] &field=IC50 returns 10.5

GET /value?item= O=C(NS(=O)(=O)C1CC1)c1cc(C2CC2)c(OCC2CCN(S(=O)(=O)c3cc(F)c(F)c(F)c3)CC2)cc1F &field=IC50 returns 14.8

GET /value?item= C[C@@H]1CC[C@@H](Oc2cc(F)c(C(=O)NS(=O)(=O)N3CCC3)cc2C2CC2)CN1Cc1ccc(F)cc1Cl &field=IC50 returns 1.9

GET /value?item= CS(=O)(=O)NC(=O)c1cc(C2CC2)c(OCC2CCN(CCC(F)(F)F)CC2)cc1F &field=IC50 returns 411

GET /value?item= CS(=O)(=O)NC(=O)c1cc(C2CC2)c(O[C@@H]2CCCN(c3ccc(C(F)(F)F)cn3)C2)cc1F [Example 490, trifluoroacetic acid salt] &field=IC50 returns 42.3
